Assay: qHTS assay to identify small molecule antagonists of the retinoic acid receptor (RAR) signaling pathway (AID 1159552; note: nearly all actives have a fitted effect of over 50% in size)
Settings: C3RL4 RARE luciferase reporter, retinol-stimulated, 6 h; series mostly up to 92.4 µM
Inconclusive results are not listed. The source made the active and inactive calls. Calls come from the whole dose curve; as a rule, active = well fitted inhibition curve with a large enough effect in the repeat runs; inconclusive = weak or mixed curves, or effect the other way; inactive = no such curve, though single readings can be large or run the other way.
metric: outcome

smiles_representation=O=C(O)c1cc(N=Nc2ccc(S(=O)(=O)Nc3ccccn3)cc2)ccc1O metric=outcome recorded_measurement=inactive
smiles_representation=CC1(C)[C@@H]2CC[C@@]1(C)C(=O)C2 metric=outcome recorded_measurement=inactive
smiles_representation=CC(=O)Nc1nnc(S(N)(=O)=O)s1 metric=outcome recorded_measurement=inactive
smiles_representation=Cc1ccc(C)c(OCCCC(C)(C)C(=O)O)c1 metric=outcome recorded_measurement=inactive

Now for another entry.
Determine its reported outcome: `O=C1CN(/N=C/c2ccc([N+](=O)[O-])o2)C(=O)N1`
inactive

====

Experiment: qHTS assay for identifying genotoxic compounds that show differential cytotoxicity against isogenic chicken DT40 cell lines with known DNA damage response pathways - Rad54/Ku70 mutant cell line (AID 743015); note: nearly all actives have a fitted effect of over 60% in size
Details: DT40 Rad54/Ku70 mutant viability, CellTiter-Glo, 40 h; series mostly up to 66.8 µM
Records with an inconclusive call do not appear. Active and inactive are the calls of the source. Calls follow the shape of the dose curve; as a rule, active = well fitted cell-killing curve with a large enough effect in the repeat runs; inconclusive = weak or mixed curves; inactive = no such curve, though single readings can be large or run the other way.
metric: outcome

Sample records with outcome:
compound=O=C(O)c1[nH]n(-c2ccc(S(=O)(=O)O)cc2)c(=O)c1N=Nc1ccc(S(=O)(=O)O)cc1 recorded_measurement=inactive
compound="CC(O)C(=O)O (stereo not drawn)" recorded_measurement=inactive
compound=CCCCC1C(=O)N(c2ccccc2)N(c2ccccc2)C1=O recorded_measurement=inactive
compound=CCCNC(=O)NS(=O)(=O)c1ccc(Cl)cc1 recorded_measurement=inactive
compound="CCCCC(CC)COC(=O)/C=C/c1ccc(OC)cc1 (stereo not drawn)" recorded_measurement=inactive

State recorded outcome for all listed compounds.
1. NC(=O)NC1NC(=O)NC1=O (stereo not drawn)
2. O=c1ccc2ccccc2o1
3. Nc1ccc(C(=O)O)cc1
4. Cc1ccc(O)cc1

["inactive", "inactive", "inactive", "inactive"]

====

Assay: qHTS assay to identify small molecule antagonists of the retinoid-related orphan receptor gamma (ROR-gamma) signaling pathway - cell viability counter screen (AID 1159520); note: nearly all actives have a fitted effect of over 50% in size
Settings: Tet-on RORgamma CHO cells viability, ATP luminescence, 16 h; series mostly up to 92.4 µM
Records with an inconclusive call do not appear. The source made the active and inactive calls. Calls follow the shape of the dose curve; as a rule, active = well fitted cell-killing curve with a large enough effect in the repeat runs; inconclusive = weak or mixed curves, or effect the other way; inactive = no such curve, though single readings can be large or run the other way.
metric: outcome

compound="CCOc1ccc(NC(=O)CC(C)O)cc1 (stereo not given)" metric=outcome recorded_measurement=inactive
compound=Cc1ccc(O)cc1 metric=outcome recorded_measurement=inactive
compound=O=C(O)c1cc(N=Nc2ccc(S(=O)(=O)Nc3ccccn3)cc2)ccc1O metric=outcome recorded_measurement=inactive
compound=O=C(c1ccccc1)c1ccccc1 metric=outcome recorded_measurement=inactive

State recorded outcome for all listed compounds.
1. CCC1(c2ccccc2)C(=O)NCNC1=O
2. CC1(C)[C@@H]2CC[C@@]1(C)C(=O)C2
3. O=S(=O)(O)NC1CCCCC1

1. inactive
2. inactive
3. inactive

Go through the items and report each one's outcome.
1. C1N2CN3CN1CN(C2)C3
2. O=c1cc[nH]c(=S)[nH]1
3. Cn1c(=O)c2[nH]cnc2n(C)c1=O

1: inactive; 2: inactive; 3: inactive

====

Test: qHTS assay to test for compound auto fluorescence at 460 nm (blue) in HEK293 cells (AID 720678)
Conditions: blue autofluorescence 405/460 nm; series mostly up to 91.3 µM
The source made the active and inactive calls. Calls come from the whole dose curve; as a rule, active = well fitted curve in the direction sought with a large enough effect in the repeat runs; inconclusive = weak or mixed curves; inactive = flat fitted curve, though single readings scatter.
metric: outcome

compound=C[C@]12C=CC(=O)C=C1CC[C@@H]1[C@@H]2[C@@H](O)C[C@@]2(C)[C@H]1CC[C@]2(O)C(=O)CO metric=outcome recorded_measurement=inactive
compound=O=C(O)CCCCCCCC(=O)O metric=outcome recorded_measurement=inactive
compound=NNC(=O)c1ccncc1 metric=outcome recorded_measurement=inactive
compound=Nc1ccc(S(=O)(=O)c2ccc(N)cc2)cc1 metric=outcome recorded_measurement=inactive
compound=O=C(O)c1[nH]n(-c2ccc(S(=O)(=O)O)cc2)c(=O)c1N=Nc1ccc(S(=O)(=O)O)cc1 metric=outcome recorded_measurement=inactive

Please report outcome for every entry that follows.
1. O=C(C1CCCCC1)N1CC(=O)N2CCc3ccccc3C2C1 (stereo not drawn)
2. O=C(c1ccccc1)C(O)c1ccccc1 (stereo not drawn)

inactive
inactive

Note down outcome recorded for `Cc1ccc(C)c(OCCCC(C)(C)C(=O)O)c1`
inactive
